Hey, just so you know, these numbers are from paper PMC5299035.

Biological target: FPR2 (Homo sapiens)
Sequence (P25090 1-351): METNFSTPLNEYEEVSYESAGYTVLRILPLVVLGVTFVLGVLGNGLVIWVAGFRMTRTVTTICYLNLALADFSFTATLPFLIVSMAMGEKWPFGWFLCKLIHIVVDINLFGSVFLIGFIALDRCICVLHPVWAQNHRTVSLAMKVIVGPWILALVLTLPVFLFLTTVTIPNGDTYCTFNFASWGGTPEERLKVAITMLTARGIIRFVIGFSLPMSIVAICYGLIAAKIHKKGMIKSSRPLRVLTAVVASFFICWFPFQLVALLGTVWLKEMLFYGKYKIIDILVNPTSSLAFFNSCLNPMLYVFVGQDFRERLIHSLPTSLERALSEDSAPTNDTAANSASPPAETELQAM
Experiment: Ca2+ mobilization assay in FPR2-HL60 cells
Format: cell-based
Settings: read-out: Ca2+ flux FPR2-HL60 efficacy
I'd be grateful if you could share measured Emax for these entries.
Numbers only, in %.

CCCc1c(C)nn(CC(=O)Nc2ccc(Br)cc2)c(=O)c1Cc1cccc(OC)c1    90
CCc1c(C)nn(CC(=O)Nc2ccc(Br)cc2)c(=O)c1Cc1cccc(OC)c1    100
CC(=O)c1sc(=O)n(CC(=O)Nc2ccc(Br)cc2)c1C    60
COc1ccc(Cc2c(C)c(C)nn(CC(=O)Nc3ccc(Br)cc3)c2=O)cc1    95
COc1cccc(-c2csc(=O)n2CC(=O)Nc2ccc(Br)cc2)c1    120

Provide reported Emax for each item, in the same order as listed.
1. COc1cccc(Cc2c(C)c(C)nn(CC(=O)Nc3ccc(Br)cc3)c2=O)c1
2. COc1ccc(-c2csc(=O)n2CC(=O)Nc2ccc(Br)cc2)cc1
3. Nc1ccc(-c2csc(=O)n2CC(=O)Nc2ccc(Br)cc2)cc1
4. O=C(Cn1c(-c2cccc(Cl)c2)csc1=O)Nc1ccc(Br)cc1
5. Cc1nn(CC(=O)Nc2ccc(Br)cc2)c(=O)cc1-c1ccccc1

Key:
1: 80; 2: 100; 3: 65; 4: 110; 5: 115

----------
Biological target: FPR1 (Homo sapiens)
Sequence (P21462 whole entry): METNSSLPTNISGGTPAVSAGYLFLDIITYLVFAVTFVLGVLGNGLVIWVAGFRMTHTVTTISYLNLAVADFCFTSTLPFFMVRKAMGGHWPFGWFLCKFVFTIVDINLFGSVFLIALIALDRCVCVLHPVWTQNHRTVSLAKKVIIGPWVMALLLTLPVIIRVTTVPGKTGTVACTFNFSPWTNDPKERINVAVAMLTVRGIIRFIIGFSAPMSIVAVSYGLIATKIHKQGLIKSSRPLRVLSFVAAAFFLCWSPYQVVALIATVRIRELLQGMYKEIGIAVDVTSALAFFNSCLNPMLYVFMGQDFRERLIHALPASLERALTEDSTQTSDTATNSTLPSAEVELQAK
Assay: Ca2+ mobilization assay in FPR1-HL60 cells
Assay type: cell-based
Details: read-out: Ca2+ flux FPR1-HL60 efficacy
measurementKind: Emax (%)
Give bare numbers, in %.

CCCc1c(C)nn(CC(=O)Nc2ccc(Br)cc2)c(=O)c1Cc1cccc(OC)c1 [4d]    115
COc1cccc(Cc2c(C)c(C)nn(CC(=O)Nc3ccc(Br)cc3)c2=O)c1 [4a]    85
COc1ccc(Cc2c(C)c(C)nn(CC(=O)Nc3ccc(Br)cc3)c2=O)cc1 [4b]    60
O=C(Cn1c(-c2ccccc2)csc1=O)Nc1ccc(Br)cc1 [9c]    100
COc1cccc(-c2csc(=O)n2CC(=O)Nc2ccc(Br)cc2)c1 [9d]    90
Cc1cc(=O)n(CC(=O)Nc2ccc(Br)cc2)nc1C [7a]    110

// for each compound below, give its Emax
1. CCc1c(C)nn(CC(=O)Nc2ccc(Br)cc2)c(=O)c1Cc1cccc(OC)c1 [4c]
2. O=C(Cn1c(-c2ccc([N+](=O)[O-])cc2)csc1=O)Nc1ccc(Br)cc1 [9h]
3. CC(=O)c1sc(=O)n(CC(=O)Nc2ccc(Br)cc2)c1C [9a]
4. COc1cccc(Cc2c(-c3ccccc3)c(C)nn(CC(=O)Nc3ccc(Br)cc3)c2=O)c1 [4f]

Key:
1. 120
2. 60
3. 75
4. 160
